Tested on: CCRIS mutagenicity, Ames/micronucleus/aberration tests
Assay: CCRIS mutagenicity studies
Details: Test System: AMES SALMONELLA TYPHIMURIUM; Strain/Indicator: TA97; Metabolic Activation: RAT, LIVER, S-9, PCB; Method: STANDARD PLATE
Calls of active or inactive are those of the source. How the calls were made is not given here.
Allowed answers: t for active, f for inactive

Examples with answers:
c1ccc2cc3ccccc3cc2c1 ... t
c1ccc2c(c1)c1cccc3ccc4cccc2c4c31 ... t
c1ccc2c(c1)-c1cccc3cccc-2c13 ... t
CC(Br)CBr (configuration not stated) ... f

Query: recorded result category for O=C1C=Cc2ccc3c4c(ccc1c24)C(=O)C=C3 in this test
t

Query: recorded result category for c1cc2cccc3c4cccc5cccc(c(c1)c23)c54 in this test
t

Query: recorded result category for Oc1ccc(O)cc1 in this test
f

* * *

Tested on: CCRIS mutagenicity, Ames/micronucleus/aberration tests
Experiment: CCRIS mutagenicity studies
Details: Test System: AMES SALMONELLA TYPHIMURIUM; Strain/Indicator: TA97; Metabolic Activation: NONE; Method: SPOT TEST
Calls of active or inactive are those of the source. No rule for the calls is given here.
Allowed answers: class 1 = active, class 0 = inactive

Query: recorded result category for CC1(C)O[C@H]1COc1c2ccoc2cc2oc(=O)ccc12 in this test
class 0

Query: recorded result category for CC(C)(O)[C@H]1Cc2cc3ccc(=O)oc3cc2O1 in this test
class 1

Query: recorded result category for CC(C)=CCOc1c2occc2cc2ccc(=O)oc12 in this test
class 1

Query: recorded result category for C=CC(C)(C)c1cc2cc3c(cc2oc1=O)OC(C(C)(C)O)C3 (stereo not given) in this test
class 1

Query: recorded result category for COP(=O)(OC)C(O)C(Cl)(Cl)Cl (stereo not given) in this test
class 0

* * *

Tested on: CCRIS mutagenicity, Ames/micronucleus/aberration tests
Assay: CCRIS mutagenicity studies
Details: Test System: AMES SALMONELLA TYPHIMURIUM; Strain/Indicator: TA100; Metabolic Activation: HAMSTER, LIVER, S-9, AROCLOR 1254; Method: STANDARD PLATE
Calls of active or inactive are those of the source. How the calls were made is not given here.
Allowed answers: Yes for active, No for inactive

NC(=O)/N=N/C(N)=O ... Yes

Query: recorded result category for CCCCB(CCCC)CCCC in this test
Yes

Query: recorded result category for C[C@]1(Cn2ccnn2)[C@H](C(=O)O)N2C(=O)C[C@H]2S1(=O)=O in this test
No

Query: recorded result category for CSC(C)(C)/C=N/O in this test
No

Query: recorded result category for O=C1CC(c2ccc(O)cc2)Oc2cc(O)cc(O)c21 (configuration not stated) in this test
No

Query: recorded result category for c1cscn1 in this test
No

Query: recorded result category for CN1C[C@H](C(=O)N[C@]2(C)O[C@@]3(O)[C@@H]4CCCN4C(=O)[C@H](Cc4ccccc4)N3C2=O)C=C2c3cccc4[nH]cc(c34)C[C@H]21 in this test
No

Query: recorded result category for CSC[C@H](NC(=O)COc1cccc2cnccc12)C(=O)N[C@@H](Cc1ccccc1)[C@H](O)C(=O)N1CSC[C@H]1C(=O)NC(C)(C)C in this test
No

Query: recorded result category for C=Cc1ccc(N)cc1 in this test
Yes

Query: recorded result category for c1ccc2c(c1)CCCC2 in this test
No

Query: recorded result category for O=c1[nH][nH]c2ccccc12 in this test
No

Query: recorded result category for CC(Cc1ccc(O)c(O)c1)C(C)Cc1ccc(O)c(O)c1 (configuration not stated) in this test
No

* * *

Test system: CCRIS mutagenicity, Ames/micronucleus/aberration tests
Assay: CCRIS mutagenicity studies
Conditions: Test System: AMES SALMONELLA TYPHIMURIUM; Strain/Indicator: TA1537; Metabolic Activation: NONE; Method: STANDARD PLATE
The source made the active and inactive calls. How the calls were made is not given here.
ASSAY_READOUT: mutagenic call

CCCCON=O ... inactive; negative
CCOCCc1c(-c2ccccc2)nc(N)n2ncnc12 ... inactive; negative
Cc1cc(Cl)ccc1N ... inactive; negative
c1ccc(NNc2ccccc2)cc1 ... inactive; negative
CN(CCO)CCO ... inactive; negative
C#C[C@]1(O)CC[C@H]2[C@@H]3CCC4=CC(=O)CC[C@@H]4[C@H]3CC[C@@]21CC ... inactive; negative

Would you be so kind as to report mutagenic call for each listed record?
1. CCCCC(CC)COC(=O)c1ccccc1C(=O)OCC(CC)CCCC (centres undefined)
2. CCCCCON=O
3. O=c1c2ccccc2[se]n1-c1ccccc1
4. CSC(C)(C)/C=N/O
5. CN1C(=O)[C@]23CC4=CC=C[C@H](O)[C@H]4N2C(=O)[C@@]1(CO)SS3

1: inactive; negative; 2: inactive; negative; 3: inactive; negative; 4: inactive; negative; 5: inactive; negative

* * *

System: CCRIS mutagenicity, Ames/micronucleus/aberration tests
Assay: CCRIS mutagenicity studies
Details: Test System: AMES SALMONELLA TYPHIMURIUM; Strain/Indicator: TA100; Metabolic Activation: RAT LIVER S-9, PHENOBARBITAL AND BETA-NAPHTHOFLAVONE; Method: PREINCUBATION
Active and inactive are the calls of the source. The rule behind the calls is not given here.
ASSAY_READOUT: mutagenic call

Examples from the recorded data:
O=C(ON=C1C=CC(=NOC(=O)c2ccccc2)C=C1)c1ccccc1 ... active; positive
NN ... inactive; negative
[Cl][Ti]([Cl])[Cl] ... active; positive
O=[N+]([O-])c1cccc2c([N+](=O)[O-])cccc12 ... active; positive
O=C(O)[C@H](O)[C@@H](O)C(=O)O ... inactive; negative

Would you be so kind as to report mutagenic call for each listed record?
1. C1COCCN1
2. CC(C)(c1ccccc1)c1ccc(O)cc1
3. [O]=[W](=[O])([OH])[OH]
4. CCCCC(CC)COC(=O)c1ccccc1C(=O)OCC(CC)CCCC (stereo not given)
5. Brc1c(Br)c(Br)c(Oc2c(Br)c(Br)c(Br)c(Br)c2Br)c(Br)c1Br
6. CCC[N+](=O)[O-]

["inactive; negative", "inactive; negative", "inactive; negative", "inactive; negative", "inactive; negative", "inactive; negative"]

Would you be so kind as to report mutagenic call for each listed record?
1. ClCC1CO1 (stereo not given)
2. c1ccc2cc3ccccc3cc2c1
3. CC(Br)CBr (stereo not given)

1. active; positive
2. inactive; negative
3. inactive; negative

Would you be so kind as to report mutagenic call for each listed record?
1. O=NN1CN2CN(C1)CN(N=O)C2
2. O=C1CCCO1

active; positive
inactive; negative

Would you be so kind as to report mutagenic call for each listed record?
1. O=C1c2ccccc2C(=O)c2c(O)ccc(O)c21
2. O=C1CCCCCCCCCCCCCCO1

1: inactive; negative; 2: inactive; negative

Would you be so kind as to report mutagenic call for each listed record?
1. CCCCCCCCCCCCCCCCCCN
2. CCCBr
3. C=C(C)C(=O)OCCCC
4. C/C=C/C=O

1: inactive; negative; 2: inactive; negative; 3: inactive; negative; 4: active; positive

Would you be so kind as to report mutagenic call for each listed record?
1. Cc1cccc(O)c1C
2. C=C(C)CCl
3. CC(C)(C#N)N=NC(C)(C)C#N

1: inactive; negative; 2: inactive; negative; 3: inactive; negative

* * *

Test system: CCRIS mutagenicity, Ames/micronucleus/aberration tests
Assay: CCRIS mutagenicity studies
Details: Test System: AMES SALMONELLA TYPHIMURIUM; Strain/Indicator: TA1537; Metabolic Activation: RAT, LIVER, S-9, AROCLOR 1254; Method: STANDARD PLATE
Calls of active or inactive are those of the source. How the calls were made is not given here.
Allowed answers: active, inactive

Query: recorded result category for c1ccc2c(c1)CCCC2 in this test
inactive

Query: recorded result category for O=C1c2ccccc2C(=O)c2c(O)ccc(O)c21 in this test
active

Query: recorded result category for COc1cc(CNC(=O)CCCCCCC(C)C)ccc1O in this test
inactive

Query: recorded result category for CCCCCCCCCCCCCCCCCCO in this test
inactive

* * *

Tested on: CCRIS mutagenicity, Ames/micronucleus/aberration tests
Assay: CCRIS mutagenicity studies
Conditions: Test System: AMES SALMONELLA TYPHIMURIUM; Strain/Indicator: TA98; Metabolic Activation: NONE; Method: PREINCUBATION
From the text: The CCRIS database contains chemical records with carcinogenicity, mutagenicity, tumor promotion, and tumor inhibition test results. It was developed by the National Cancer Institute (NCI). Data are derived from studies cited in primary journals, current awareness tools, NCI reports, and other sources. Test results have been reviewed by experts in carcinogenesis and mutagenesis. CCRIS provides historical information from the years 1985 - 2011. It is no longer updated. […]
The source made the active and inactive calls. No rule for the calls is given here.
Allowed answers: active, inactive

Examples with answers:
CCCBr ... inactive
O=[N+]([O-])c1ccc2ccc3c([N+](=O)[O-])c4ccccc4c4ccc1c2c34 ... active
Cc1ccc2ccc([N+](=O)[O-])cc2c1 ... active

Query: recorded result category for [Cl][Pd][Cl] in this test
inactive

Query: recorded result category for CC(=O)Nc1ccc(Oc2ccc(N(O)C(C)=O)cc2)cc1 in this test
active

Query: recorded result category for O=C1[O][Bi][O]c2ccccc21 in this test
inactive

Query: recorded result category for CC(C)(C)OOC1(C)C=C(C(C)(C)C)C(=O)C(C(C)(C)C)=C1 in this test
inactive
